Each recorded value in this set is attributed to patent US8815903B2.

- targetEntity: rat EP1 receptor (Rattus norvegicus)
- measurementDescription: Test for confirmation of EP1 receptor antagonism (inhibition of PGE2-induced increase in intracellular calcium concentration)
- statedConditions: rat EP1 receptor-expressing COS-1 cells; prostaglandin E2 10 nM; fluorescent calcium indicator, FDSS 7000
measuredMetric: log10(IC50) (log10 of the value in nM)
In plain terms, each number is the log10 of measured IC50 in nM.

Q. Recorded log10(IC50) of CCc1ccc2c(Cc3cccc(-c4nnn[nH]4)n3)c(C3(C)CC3)[nH]c2c1 , please.
A. 1.18

Q. For COc1ccc2c(Cc3cccc(C(=O)NC#N)n3)c(C(C)(C)C)[nH]c2c1 , what is its reported log10(IC50)?
A. 1.68

Q. Sample CCS(=O)(=O)NC(=O)c1cccc(Cc2c(-c3ccc(F)cc3)[nH]c3cc(OC)ccc23)n1 — what was its log10(IC50)?
A. 1.43

Q. Requested read-out: log10(IC50). Entry: CCS(=O)(=O)NC(=O)c1cccc(Cc2c(-c3ccccc3)[nH]c3cc(Cl)ccc23)n1
A. 1.76

Q. Which log10(IC50) is reported for this molecule? CCC(C)c1[nH]c2cc(OC)ccc2c1Cc1cccc(-c2nnn[nH]2)n1 (stereo not shown)
A. 1.34

Q. Return reported log10(IC50); argument: O=c1[nH]c(-c2cccc(Cc3c(-c4ccccc4)[nH]c4cc(C5CC5)ccc34)n2)no1
A. 1.60

Q. Bench note: what log10(IC50) did COc1ccc2c(Cc3cccc(-c4nnn[nH]4)n3)c(-c3ccoc3)[nH]c2c1 show?
A. 0.76

Q. Need log10(IC50), item CCS(=O)(=O)NC(=O)c1cccc(Cc2c(-c3ccccc3)[nH]c3cc(OC)ccc23)n1
A. 1.26

Q. Value lookup for log10(IC50); key = Cc1ccc2c(Cc3cccc(C(=O)NS(C)(=O)=O)n3)c(-c3ccccc3)[nH]c2c1
A. 1.52

Q. Could you share which log10(IC50) value was measured for c1ccc(-c2[nH]c3cc(C4CC4)ccc3c2Cc2cccc(-c3nnn[nH]3)n2)cc1 ?
A. 1.79

Q. For the molecule CCS(=O)(=O)NC(=O)c1cccc(Cc2c(-c3ccsc3)[nH]c3cc(OC)ccc23)n1 , what log10(IC50) is on record?
A. 1.66

Q. Please report the recorded log10(IC50) for CCCS(=O)(=O)NC(=O)c1cccc(Cc2c(-c3ccccc3)[nH]c3cc(OC)ccc23)n1 .
A. 1.59

Q. Need log10(IC50) of Cc1ccc2c(Cc3cccc(-c4nnn[nH]4)n3)c(-c3ccccc3)[nH]c2c1 , thanks.
A. 1.18

Q. Which log10(IC50) reading was recorded for the molecule COc1cc2[nH]c(-c3ccccc3)c(Cc3cccc(C(=O)NS(=O)(=O)C(C)C)n3)c2cc1F ?
A. 1.61

Q. Query (molecule): COc1ccc2c(Cc3cccc(-c4noc(=O)[nH]4)n3)c(-c3ccoc3)[nH]c2c1 ; field requested: log10(IC50)
A. 1.36

Q. Would you mind telling me what log10(IC50) value was observed for CCCS(=O)(=O)NC(=O)c1cccc(Cc2c(C(C)(C)C)[nH]c3cc(OC)c(Cl)cc23)n1 ?
A. 1.74

###

- targetEntity: rat EP1 receptor (Rattus norvegicus)
- Sequence (P70597 1-405): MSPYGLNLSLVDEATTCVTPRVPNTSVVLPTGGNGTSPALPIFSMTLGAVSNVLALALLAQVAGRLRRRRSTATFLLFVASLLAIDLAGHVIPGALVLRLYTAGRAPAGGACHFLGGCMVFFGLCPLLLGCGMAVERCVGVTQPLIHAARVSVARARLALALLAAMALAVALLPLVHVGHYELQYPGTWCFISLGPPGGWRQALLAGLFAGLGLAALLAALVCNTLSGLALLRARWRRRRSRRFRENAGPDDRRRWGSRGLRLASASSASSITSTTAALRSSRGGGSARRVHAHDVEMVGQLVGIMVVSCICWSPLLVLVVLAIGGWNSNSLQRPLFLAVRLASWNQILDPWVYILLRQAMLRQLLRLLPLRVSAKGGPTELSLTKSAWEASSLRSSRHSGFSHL
- measurementDescription: Test for confirmation of EP1 receptor antagonism (inhibition of PGE2-induced increase in intracellular calcium concentration)
- statedConditions: rat EP1 receptor-expressing COS-1 cells; prostaglandin E2 10 nM; fluorescent calcium indicator, FDSS 7000
- Experimental: Test for Confirmation of EP1 Receptor Antagonism (1) Preparation of Rat EP1 Expression Vector Using Rat Kidney BD Marathon-Ready cDNA (Nippon Becton Dickinson Company, Ltd.) as a template, a forward primer shown in (SEQ ID NO:1), and a reverse primer shown in (SEQ ID NO:2), a first run of PCR was carried out using KOD-Plus-Ver 2.0 (Toyobo Co., Ltd.). […]
measuredMetric: IC50 (nM)
Answer in nM, number only, no unit symbol.

Q. Lab note: need IC50 with rat EP1 receptor (Rattus norvegicus) for entry COc1ccc2c(Cc3cccc(-c4nnn[nH]4)n3)c(C(C)C)[nH]c2c1 , please look it up.
A. 23

Q. Lookup: IC50 / rat EP1 receptor (Rattus norvegicus) / COc1ccc2c(Cc3cccc(-c4nnn[nH]4)n3)c(-c3cncnc3)[nH]c2c1
A. 11

Q. Test system rat EP1 receptor (Rattus norvegicus); read-out IC50; what value for COc1ccc2c(Cc3cccc(C(=O)NS(=O)(=O)C(C)C)n3)c(-c3ccccc3)[nH]c2c1 ?
A. 27

Q. Hello, I am looking for reported IC50 with rat EP1 receptor (Rattus norvegicus) for COc1cc2[nH]c(-c3ccccc3)c(Cc3cccc(C(=O)NS(=O)(=O)C4CC4)n3)c2cc1F . Could you help?
A. 35
